Test: Microsomal stability assay, human
Assay type: in vitro ADME
Settings: human microsomes, read-out: Microsomal Stability (T1/2 min) Human
Description: Microsomal stability assays were performed using mouse, rat, and human […] according to methods well-known in the art. Microsomal stability results are shown in Table 2 for selected compounds of the invention. The compound numbers correspond to the compound numbers in Table 1. […] “N/A” indicates not assayed.
Result type: half-life

Query: Recorded half-life of O=c1[nH]c(CCOc2ccc3c(c2)C(c2ccc(F)cc2)=C(CN2CCCC2)CO3)no1 , please.
Reply: > 30 min

Query: # half-life lookup, item O=C(C1=C(c2ccc(F)cc2)c2cc(OCCN3CCCCC3)ccc2OC1)N1CCCC1
Reply: < 10 min

Query: Item under review: CN(C)CCNC(=O)C1=C(c2ccc(F)cc2)c2cc(OC(F)(F)F)ccc2OC1 . Reported half-life?
Reply: > 30 min

Hi team, please reply with half-life for each item in this list.
1. CN1CCN(CC2=C(c3ccc(F)cc3)c3cc(F)ccc3OC2)CC1
2. COc1ccc2c(c1)C(c1ccc(C#N)cc1)=C(C(=O)N1CCN(C)CC1)CO2
3. CCNC(=O)C1=C(c2ccc(F)cc2)c2cc(OC(F)F)ccc2OC1
4. COc1ccc2c(c1)C(c1ccc(C(F)(F)F)cc1)=C(C(=O)N1CCN(C)CC1)CO2

Reply:
> 30 min
> 30 min
10 to 30 min
< 10 min

Query: Quick check: half-life of COc1ccc2c(c1)C(c1ccc(Cl)cc1)=C(CN1CCCC1)CO2 ?
Reply: 10 to 30 min

Where do the numbers come from? From patent US12319675B2.
